Reported TGI by item:
system: NCI-H522 lung; assay: NCI tumour cell line growth inhibition, 48 h

| Molecule | Quantity Unit | Qualifier | TGI |
| --- | --- | --- | --- |
| CCCCOc1ccc(OCCCCCCCCCC[N+](C)(C)C)cc1 | µM | = | 5.22 |
| CCCCC1=C(C(=O)N2CCOCC2)C2(OCCO2)C1=O | µM | = | 32.6 |
| Cc1ccc(-c2cc(-c3ccco3)c(C#N)c(=O)n2C2OC(OC(=O)c3ccccc3)C(OC(=O)c3ccccc3)C2OC(=O)c2ccccc2)cc1 (stereo not given) | µM | > | 100 |
| Cc1cc(S(=O)(=O)Nc2n[nH]c(-c3ccccn3)n2)c(S)cc1Cl | µM | = | 72.4 |
| COC(=O)[C@]12CCC(C)[C@H](C)[C@H]1C1=CCC3[C@@]4(C)CC[C@H](OC(C)=O)C(C)(C)C4CC[C@@]3(C)C1(C)C(O)C2 (stereo not given in full) | µM | > | 100 |
